System: up to 32 different microorganisms
ASSAY PROTOCOL: in vitro antibacterial activity (MIC), agar dilution on Brain Heart Infusion (BHI) agar with Steers replicator
Type: cell-based
MEASUREMENT PARAMETERS: Staphylococcus aureus CMX 553 (code FF); unit assumed
REPORTED ENDPOINT: MIC (µg/mL)

{"columns": ["COMPOUND", "MEASUREMENT"],
 "data": [
  ["CCC1OC(=O)C(C)C(=O)C(C)C(OC2OC(C)CC(N(C)C)C2O)C(C)(OCC=Cc2cccc3ncccc23)CC(C)C(=O)C(C)C2NC(=O)OC12C (stereo not drawn)", 0.1],
  ["CC[C@H]1OC(=O)[C@H](C)C(=O)[C@H](C)[C@@H](O[C@@H]2O[C@H](C)C[C@H](N(C)C)[C@H]2O)[C@@](C)(OCC=Cc2cnc3ccccc3c2)C[C@@H](C)C(=O)[C@H](C)[C@H]2N(C)C(=O)O[C@]12C", 0.1],
  ["CCC1OC(=O)C(C)C(=O)C(C)C(OC2OC(C)CC(N(C)C)C2O)C(C)(OCC=Cc2ccc3nc(C)ccc3c2)CC(C)C(=O)C(C)C2NC(=O)OC12C (stereo not drawn)", 0.2]
]}

====

Tested on: up to 32 different microorganisms
ASSAY PROTOCOL: in vitro antibacterial activity (MIC), agar dilution on Brain Heart Infusion (BHI) agar with Steers replicator
Assay type: cell-based
MEASUREMENT PARAMETERS: organism code HH; unit assumed

{"columns": ["COMPOUND", "TARGET OF ASSAY", "MIC / µg/mL"],
 "data": [
  ["CC[C@H]1OC(=O)[C@H](C)C(=O)[C@H](C)[C@@H](O[C@@H]2O[C@H](C)C[C@H](N(C)C)[C@H]2O)[C@@](C)(OCCNCCCCc2ccccc2)C[C@@H](C)C(=O)[C@H](C)[C@H]2NC(=O)O[C@@]21C [Example 224]", "up to 32 different microorganisms", 0.39],
  ["CCC1OC(=O)C(C)C(=O)C(C)C(OC2OC(C)CC(N(C)C)C2O)C(C)(OCC=Cc2ccc3ccccc3n2)CC(C)C(=O)C(C)C2NC(=O)OC12C (stereo not shown) [Example 212, R is —CH2CH═CH-(2-quinolyl)]", "up to 32 different microorganisms", 0.39],
  ["CC[C@H]1OC(=O)[C@H](C)C(=O)[C@H](C)[C@@H](O[C@@H]2O[C@H](C)C[C@H](N(C)C)[C@H]2O)[C@@](C)(OCC=NOCc2ccc3ncccc3c2)C[C@@H](C)C(=O)[C@H](C)[C@H]2NC(=O)O[C@@]21C [Example 234]", "up to 32 different microorganisms", 0.1],
  ["CC[C@H]1OC(=O)[C@H](C)C(=O)[C@H](C)[C@@H](O[C@@H]2O[C@H](C)C[C@H](N(C)C)[C@H]2O)[C@@](C)(OCC=Cc2ccc3ncc(Br)cc3c2)C[C@@H](C)C(=O)[C@H](C)[C@H]2NC(=O)O[C@@]21C [Example 219, R is —CH2CH═CH-(3-bromo-6-quinolyl)]", "up to 32 different microorganisms", 0.2]
]}

====

Listed molecules paired with reported MIC
Test system: up to 32 different microorganisms
ASSAY PROTOCOL: in vitro antibacterial activity (MIC), agar dilution on Brain Heart Infusion (BHI) agar with Steers replicator
Type: cell-based
MEASUREMENT PARAMETERS: Escherichia coli JUHL (code QQ); unit assumed

{"columns": ["MOLECULE", "MIC"],
 "data": [
  ["CC[C@H]1OC(=O)[C@H](C)C(=O)[C@H](C)[C@@H](O[C@@H]2O[C@H](C)C[C@H](N(C)C)[C@H]2O)[C@@](C)(OCC=Cc2ccc(Cl)cc2)C[C@@H](C)C(=O)[C@H](C)[C@H]2OC(=O)O[C@@]21C", "> 100 µg/mL"],
  ["CC[C@H]1OC(=O)[C@H](C)C(=O)[C@H](C)[C@@H](O[C@@H]2O[C@H](C)C[C@H](N(C)C)[C@H]2O)[C@@](C)(OCCCc2ccccc2)C[C@@H](C)C(=O)[C@H](C)[C@H]2OC(=O)O[C@@]21C", "> 100 µg/mL"],
  ["CC[C@H]1OC(=O)[C@H](C)C(=O)[C@H](C)[C@@H](O[C@@H]2O[C@H](C)C[C@H](N(C)C)[C@H]2O)[C@@](C)(OCCCc2ccccc2)C[C@@H](C)C(=O)[C@H](C)[C@@H](O)[C@]1(C)O", "> 100 µg/mL"],
  ["CCC1OC(=O)C(C)C(=O)C(C)C(OC2OC(C)CC(N(C)C)C2O)C(C)(OCC=Cc2cccnc2)CC(C)C(=O)C(C)C2NC(=O)OC12C (stereo not shown)", "100 µg/mL"],
  ["C=CCO[C@@]1(C)C[C@@H](C)C(=O)[C@H](C)[C@H]2N(C)C(=O)O[C@]2(C)[C@@H](CC)OC(=O)[C@H](C)C(=O)[C@H](C)[C@H]1O[C@@H]1O[C@H](C)C[C@H](N(C)C)[C@H]1O", "> 100 µg/mL"],
  ["CCC1OC(=O)C(C)C(=O)C(C)C(OC2OC(C)CC(N(C)C)C2O)C(C)(OCC=Cc2cnc3ccc(Cl)cc3c2)CC(C)C(=O)C(C)C2NC(=O)OC12C (stereo not shown)", "50 µg/mL"],
  ["CC[C@H]1OC(=O)[C@H](C)C(=O)[C@H](C)[C@@H](O[C@@H]2O[C@H](C)C[C@H](N(C)C)[C@H]2O)[C@@](C)(OCc2ccc3ccccc3c2)C[C@@H](C)C(=O)[C@H](C)[C@@H](O)[C@]1(C)O", "> 100 µg/mL"],
  ["CCC1OC(=O)C(C)C(=O)C(C)C(OC2OC(C)CC(N(C)C)C2O)C(C)(OCC=Cc2cncc3ccccc23)CC(C)C(=O)C(C)C2NC(=O)OC12C (stereo not shown)", "100 µg/mL"],
  ["CCC1OC(=O)C(C)C(=O)C(C)C(OC2OC(C)CC(N(C)C)C2O)C(C)(OCC=Cc2ccc3c(c2)OCO3)CC(C)C(=O)C(C)C2NC(=O)OC12C (stereo not shown)", "> 100 µg/mL"],
  ["C=CCOC1(C)CC(C)C(=O)C(C)C(O)C(C)(O)C(CC)OC(=O)C(C)C(=O)C(C)C1OC1OC(C)CC(N(C)C)C1O (stereo not shown)", "> 100 µg/mL"]
]}
